Origin of values: paper PMC9120017

- TESTED_TARGET: mouse TMEM16A mutant T539A (Mus musculus, UniProt Q8BHY3, T539A)
- Construct: expressed in transfected cells; host or cells: HEK293T
- MEASUREMENT_PROTOCOL: Inside-out patch recording of 1PBC block, mutant T539A
- Type: cell-based
- SETUP_CONDITIONS: 140 mV; 2 µM Ca2+
MEASURE: IC50 (µM)
Unit µM implied. Number only.

Field request: IC50 | item: N#Cc1c(C(F)(F)F)cc(O)n2c1nc1ccccc12 [1PBC]
9.45

###

- TESTED_TARGET: wild-type mouse TMEM16A (Mus musculus)
- Construct: expressed in transfected cells; host or cells: HEK293T
- MEASUREMENT_PROTOCOL: Inside-out patch recording of 1PBC block, wild-type TMEM16A
- Type: cell-based
- SETUP_CONDITIONS: -80 mV; 2 µM Ca2+
MEASURE: IC50 (µM)
Unit µM implied. Number only.

What IC50 appears in the records for this compound with wild-type mouse TMEM16A (Mus musculus)? `N#Cc1c(C(F)(F)F)cc(O)n2c1nc1ccccc12`
11.6

###

- TESTED_TARGET: mouse TMEM16A mutant S517A (Mus musculus, UniProt Q8BHY3, S517A)
- Construct: expressed in transfected cells; host or cells: HEK293T
- MEASUREMENT_PROTOCOL: Inside-out patch recording of 1PBC block, mutant S517A
- Assay type: cell-based
- SETUP_CONDITIONS: S517A; V 20 mV
MEASURE: pIC50
FYI, pIC50 means -log10 of a concentration in mol per litre.

Field request: pIC50 | item: N#Cc1c(C(F)(F)F)cc(O)n2c1nc1ccccc12 [1PBC]
5.42

###

- TESTED_TARGET: mouse TMEM16A mutant Y514A (Mus musculus, UniProt Q8BHY3, Y514A)
- Construct: expressed in transfected cells; host or cells: HEK293T
- Sequence (Q8BHY3 1-960 Y514A): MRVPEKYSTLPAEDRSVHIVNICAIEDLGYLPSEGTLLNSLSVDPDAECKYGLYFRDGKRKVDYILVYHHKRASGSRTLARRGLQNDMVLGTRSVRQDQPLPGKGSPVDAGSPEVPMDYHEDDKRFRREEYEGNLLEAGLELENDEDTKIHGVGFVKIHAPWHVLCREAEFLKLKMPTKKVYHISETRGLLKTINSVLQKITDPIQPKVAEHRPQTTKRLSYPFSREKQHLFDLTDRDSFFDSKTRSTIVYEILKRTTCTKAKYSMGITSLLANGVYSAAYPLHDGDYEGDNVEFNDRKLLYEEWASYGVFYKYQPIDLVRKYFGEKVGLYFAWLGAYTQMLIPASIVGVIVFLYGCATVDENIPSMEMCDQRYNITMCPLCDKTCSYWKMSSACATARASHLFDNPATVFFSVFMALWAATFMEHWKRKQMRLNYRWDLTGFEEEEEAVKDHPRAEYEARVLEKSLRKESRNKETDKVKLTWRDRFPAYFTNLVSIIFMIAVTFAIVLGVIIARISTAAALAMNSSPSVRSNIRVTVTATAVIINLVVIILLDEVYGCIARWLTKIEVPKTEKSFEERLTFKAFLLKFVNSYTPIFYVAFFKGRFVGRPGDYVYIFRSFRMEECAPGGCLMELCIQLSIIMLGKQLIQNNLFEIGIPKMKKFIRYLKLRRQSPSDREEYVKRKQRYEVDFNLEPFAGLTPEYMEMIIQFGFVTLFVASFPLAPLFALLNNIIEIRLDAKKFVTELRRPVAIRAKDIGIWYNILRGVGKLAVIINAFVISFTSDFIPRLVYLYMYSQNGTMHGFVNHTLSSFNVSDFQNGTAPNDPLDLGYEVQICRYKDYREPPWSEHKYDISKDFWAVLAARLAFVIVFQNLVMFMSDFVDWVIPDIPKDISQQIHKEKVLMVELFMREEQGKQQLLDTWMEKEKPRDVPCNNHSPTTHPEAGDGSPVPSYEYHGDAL
- MEASUREMENT_PROTOCOL: Inside-out patch recording of 1PBC block, mutant Y514A
- Assay type: cell-based
- SETUP_CONDITIONS: Y514A; V 60 mV
- Method: HEK293T cells (ATCC CRL-1573) were maintained in Dulbecco’s modified Eagle’s medium (DMEM; Sigma-Aldrich) supplemented with 10 U ml^−1 penicillin, 0.1 mg ml^−1 streptomycin (Sigma-Aldrich), 2 mM L-glutamine (Sigma-Aldrich), and 10% FBS (Sigma-Aldrich) in a humidified atmosphere containing 5% CO2 at 37 °C. […]
MEASURE: IC50

Field request: IC50 | item: `N#Cc1c(C(F)(F)F)cc(O)n2c1nc1ccccc12`
14.6 µM

###

- TESTED_TARGET: mouse TMEM16A mutant N546A (Mus musculus, UniProt Q8BHY3, N546A)
- Construct: expressed in transfected cells; host or cells: HEK293T
- Sequence (Q8BHY3 1-960 N546A): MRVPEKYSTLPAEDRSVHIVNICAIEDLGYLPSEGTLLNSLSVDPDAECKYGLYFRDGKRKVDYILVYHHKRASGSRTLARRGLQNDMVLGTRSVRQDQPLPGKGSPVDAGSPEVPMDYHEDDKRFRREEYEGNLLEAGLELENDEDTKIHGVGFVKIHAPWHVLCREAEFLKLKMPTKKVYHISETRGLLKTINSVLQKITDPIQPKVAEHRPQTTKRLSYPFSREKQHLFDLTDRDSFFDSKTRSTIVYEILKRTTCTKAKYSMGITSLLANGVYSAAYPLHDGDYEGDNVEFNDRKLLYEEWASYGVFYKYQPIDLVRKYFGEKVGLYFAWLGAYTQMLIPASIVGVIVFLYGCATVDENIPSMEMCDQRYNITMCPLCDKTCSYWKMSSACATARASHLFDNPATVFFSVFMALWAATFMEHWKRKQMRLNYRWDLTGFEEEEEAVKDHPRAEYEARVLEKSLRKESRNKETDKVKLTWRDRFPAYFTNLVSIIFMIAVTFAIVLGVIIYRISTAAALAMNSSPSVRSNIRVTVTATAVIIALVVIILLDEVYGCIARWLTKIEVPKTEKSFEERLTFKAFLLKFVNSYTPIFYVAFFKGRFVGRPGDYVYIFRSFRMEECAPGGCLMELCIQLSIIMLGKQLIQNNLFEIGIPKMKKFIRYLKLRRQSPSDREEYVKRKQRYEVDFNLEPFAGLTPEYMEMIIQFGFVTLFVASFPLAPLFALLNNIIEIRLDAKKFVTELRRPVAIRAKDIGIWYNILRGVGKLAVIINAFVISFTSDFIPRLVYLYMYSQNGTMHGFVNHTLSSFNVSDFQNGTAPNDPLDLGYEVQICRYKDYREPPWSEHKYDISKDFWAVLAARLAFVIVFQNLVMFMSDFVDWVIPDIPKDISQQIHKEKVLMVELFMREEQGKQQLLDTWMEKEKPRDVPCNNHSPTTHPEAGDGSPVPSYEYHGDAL
- MEASUREMENT_PROTOCOL: Inside-out patch recording of 1PBC block, mutant N546A
- Type: cell-based
- SETUP_CONDITIONS: -120 mV; 2 µM Ca2+
MEASURE: IC50 (nM)
Unit nM implied. Number only.

Field request: IC50 | item: N#Cc1c(C(F)(F)F)cc(O)n2c1nc1ccccc12 [1PBC]
2750

###

- TESTED_TARGET: mouse TMEM16A mutant R515A (Mus musculus, UniProt Q8BHY3, R515A)
- Construct: expressed in transfected cells; host or cells: HEK293T
- MEASUREMENT_PROTOCOL: Inside-out patch recording of 1PBC block, mutant R515A
- Format: cell-based
- SETUP_CONDITIONS: -40 mV; 4 µM Ca2+
MEASURE: IC50 (µM)
Unit µM implied. Number only.

Field request: IC50 | item: `N#Cc1c(C(F)(F)F)cc(O)n2c1nc1ccccc12`
145

###

- TESTED_TARGET: mouse TMEM16A mutant Q637A (Mus musculus, UniProt Q8BHY3, Q637A)
- Construct: expressed in transfected cells; host or cells: HEK293T
- MEASUREMENT_PROTOCOL: Inside-out patch recording of 1PBC block, mutant Q637A
- Type: cell-based
- SETUP_CONDITIONS: 60 mV; 2 µM Ca2+
MEASURE: pIC50
FYI, pIC50 means -log10 of a concentration in mol per litre.

Field request: pIC50 | item: N#Cc1c(C(F)(F)F)cc(O)n2c1nc1ccccc12 [1PBC]
6.02

###

- TESTED_TARGET: mouse TMEM16A mutant G558P (Mus musculus, UniProt Q8BHY3, G558P)
- Construct: expressed in transfected cells; host or cells: HEK293T
- MEASUREMENT_PROTOCOL: Inside-out patch recording of 1PBC block, mutant G558P
- Type: cell-based
- SETUP_CONDITIONS: G558P; V -20 mV
MEASURE: IC50 (µM)
Unit µM implied. Number only.

Field request: IC50 | item: `N#Cc1c(C(F)(F)F)cc(O)n2c1nc1ccccc12`
7.94
